# System: UACC-257 melanoma
# protocol.description: NCI tumour cell line growth inhibition, 48 h
Entries annotated with measured GI50
quantity.measured: GI50

1) Nc1ccccc1NC(=O)c1ccc(CN2CCC/C(=C\c3ccccn3)C2=O)cc1
1.15 µM
2) O=c1c2c(c3ccccc3n1-c1ccccc1)NC(=S)NC2c1ccc(Cl)cc1 (centres undefined)
5.9 µM
3) O=C1C(=O)c2ccccc2C(O)=C1CCCc1ccc(C2CCCC2)cc1
3.91 µM
4) Cc1ccc(/C=C/C(=N/N=C(N)N)c2ccccc2)cc1
2.96 µM

====

TGI overview
# Tested on: COLO 205 colon
# protocol.description: NCI tumour cell line growth inhibition, 48 h
quantity.measured: TGI

1. CCCCc1ccc(-n2sc3ncc([N+](=O)[O-])cc3c2=O)cc1
32.3 µM
2. Cc1ccc2c(c1)C1(OC(=O)c3ccccc31)c1ccc(F)cc1O2 (centres undefined)
> 100 µM
3. O=c1c2ccccc2nc2n1C(c1ccc([N+](=O)[O-])cc1)C2(c1ccccc1)c1ccccc1 (centres undefined)
> 100 µM
4. COC(=O)C(CC(C)=O)CS(=O)(=O)CC(=O)C(=O)Nc1cccc([N+](=O)[O-])c1 (centres undefined)
> 100 µM
5. N#Cc1cc([N+](=O)[O-])ccc1NC(=O)C(F)(F)F
44.6 µM
6. O=S(=O)(c1ccc(Br)cc1)N1CCN(S(=O)(=O)c2ccc(Br)cc2)CC1
> 100 µM
7. C=C1CC[C@@H]2[C@](C)(COC(C)=O)[C@H](OC(C)=O)CC[C@@]2(C)[C@@H]1CC(Nc1ccc(S(=O)(=O)Nc2cc(C)on2)cc1)C1=CCOC1=O (some centres undefined)
4.34 µM
8. COc1ccc(CNC(C)C(=O)O)cc1 (centres undefined)
> 100 µM
9. CN(C)c1ccc(-c2c(C#N)c(O)n(NS(=O)(=O)c3ccccc3)c(=O)c2C#N)cc1
> 100 µM
10. Cc1ccc(Nc2[nH]c(=O)[nH]c(=O)c2C)cc1Cl
> 100 µM
11. Cc1ccc(N=C2S/C(=C3/CCC=C3N3CCOCC3)N(c3ccc(Cl)cc3)C2=Nc2ccc(C)cc2)cc1
> 100 µM
12. C[N+](C)(C)/N=C/c1ccc(O)c(O)c1
> 100 µM
13. CO/C(=C/C(=O)C(Cl)(Cl)Cl)CC/C(=C\C(=O)C(Cl)(Cl)Cl)OC
> 100 µM
14. Nn1c(CCCCCCCCc2nnc(COc3ccccc3)n2N)nnc1COc1ccccc1
> 100 µM
15. S=C(N/N=C/c1ccccn1)Nc1ccc(Cl)cc1
> 100 µM
16. O=C(Nc1ccc(Sc2ccc(N=Nc3c(O)c(S(=O)(=O)O)cc4cc(S(=O)(=O)O)ccc34)cc2)cc1)c1ccc(N=Nc2c(O)ccc3c(S(=O)(=O)O)cc(S(=O)(=O)O)cc23)cc1
35 µM
17. C/C(=N\NC(=S)N1CCN(C2CCCCCC2)CC1)c1ccccn1
1.48 µM
18. COC(=O)C(Cc1ccccc1)NP(=O)(O)OCC1OC(n2cc(I)c(=O)[nH]c2=O)CC1O (centres undefined)
> 100 µM
19. O=C(/C=C/c1ccccc1Cl)c1cccc2ccccc12
33.3 µM
20. O=C(NNc1ccc(F)cc1)C1CCC(CNS(=O)(=O)c2ccc(Cl)c(Cl)c2)CC1 (centres undefined)
> 50 µM
21. CNc1cc2nc3cc(NC)c(C)cc3cc2cc1C
2.35 µM
22. CC(=O)OCC1=C(C(=O)O)C(c2ccc3c(c2)OCO3)c2cc3c(cc2O1)OCO3 (centres undefined)
> 100 µM
23. CCN(Cc1ccccc1Cl)c1ccc(CO)c(Cl)c1
16.3 µM
24. NC1=NN(c2ccccc2)C(=O)C1/C(=N\NC(=O)c1cc2ccccc2cc1O)C(=O)Nc1cccc(C(F)(F)F)c1 (centres undefined)
> 100 µM
25. Cc1nc2c(cc1C(=O)N/N=C/c1ccc([N+](=O)[O-])cc1)c(=O)n(C)c(=O)n2C
> 100 µM
26. N=C(N)SCc1cc(Cl)cc(Cl)c1O
33 µM
27. C[N+](C)(CCCCCC[N+](C)(C)CCCN1C(=O)c2cc3ccccc3cc2C1=O)CCCN1C(=O)c2cc3ccccc3cc2C1=O
> 37.5 µM
28. N#CC(Nc1cccc(C(F)(F)F)c1)c1ccccc1C(F)(F)F (centres undefined)
10.6 µM
29. CCCC(N)C(=O)c1ccccc1 (centres undefined)
> 100 µM
